target: Fes (UniProt P07332); assay: phosphorylation enrichment, bacterial display (enrichment ratio); higher = better substrate or ligand; peptides without Tyr show the background;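 also: 11-residue human phosphosite peptides and single-mutation variants displayed on the E. coli surface, counted by deep sequencing, each peptide's frequency after selection divided by its frequency in the unselected input library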;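 also: frequency after pTyr selection over input frequency; kinase dosed for 20-30% of maximal phosphorylation in three min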
Sequence (P07332 whole entry, looked up): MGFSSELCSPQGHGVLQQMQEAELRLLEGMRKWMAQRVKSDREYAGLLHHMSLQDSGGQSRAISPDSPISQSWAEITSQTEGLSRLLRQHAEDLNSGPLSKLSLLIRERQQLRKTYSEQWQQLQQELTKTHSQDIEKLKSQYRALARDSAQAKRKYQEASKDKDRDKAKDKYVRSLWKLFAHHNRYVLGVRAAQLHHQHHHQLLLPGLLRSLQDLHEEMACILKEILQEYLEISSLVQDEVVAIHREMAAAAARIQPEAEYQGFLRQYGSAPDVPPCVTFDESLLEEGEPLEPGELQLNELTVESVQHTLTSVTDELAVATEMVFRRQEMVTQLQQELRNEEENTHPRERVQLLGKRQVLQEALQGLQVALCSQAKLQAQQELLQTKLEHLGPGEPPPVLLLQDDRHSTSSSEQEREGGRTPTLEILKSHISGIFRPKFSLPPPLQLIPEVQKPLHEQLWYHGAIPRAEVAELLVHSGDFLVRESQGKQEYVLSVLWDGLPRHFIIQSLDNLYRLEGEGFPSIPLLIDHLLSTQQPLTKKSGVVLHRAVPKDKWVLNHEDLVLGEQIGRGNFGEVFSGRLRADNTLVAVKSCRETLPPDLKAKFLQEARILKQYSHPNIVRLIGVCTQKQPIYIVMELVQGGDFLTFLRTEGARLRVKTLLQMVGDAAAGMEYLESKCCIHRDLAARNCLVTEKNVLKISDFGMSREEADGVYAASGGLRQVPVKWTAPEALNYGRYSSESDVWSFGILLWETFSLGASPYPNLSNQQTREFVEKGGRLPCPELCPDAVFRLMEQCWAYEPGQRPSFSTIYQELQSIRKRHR
Tag: Satisfied if measured phosphorylation enrichment is not below 1, Not satisfied if it is.

[
  {
    "SEQUENCE_ENTRY": "DEWFLYKMRDI [CPS1_Y879_K875E]",
    "ASSIGNED_CLASS": "Satisfied"
  },
  {
    "SEQUENCE_ENTRY": "NVKGIYAVGDV [GSR_Y371]",
    "ASSIGNED_CLASS": "Not satisfied"
  },
  {
    "SEQUENCE_ENTRY": "DVSKEYGHLLP [HRC_Y99]",
    "ASSIGNED_CLASS": "Satisfied"
  },
  {
    "SEQUENCE_ENTRY": "SDVNKYSTAFG [GJB3_Y16_G12D]",
    "ASSIGNED_CLASS": "Not satisfied"
  },
  {
    "SEQUENCE_ENTRY": "PVRIAYDRPRG [SUGP2_Y985]",
    "ASSIGNED_CLASS": "Not satisfied"
  },
  {
    "SEQUENCE_ENTRY": "LTYHMYADPNI [SOS1_Y618_F623I]",
    "ASSIGNED_CLASS": "Satisfied"
  },
  {
    "SEQUENCE_ENTRY": "LAAAGYDVEKN [H1-3_Y72]",
    "ASSIGNED_CLASS": "Satisfied"
  },
  {
    "SEQUENCE_ENTRY": "IPVNGYQPVPA [ROR2_Y824_V819I]",
    "ASSIGNED_CLASS": "Not satisfied"
  },
  {
    "SEQUENCE_ENTRY": "SAAAIYTVRHP [PMP22_Y117]",
    "ASSIGNED_CLASS": "Not satisfied"
  },
  {
    "SEQUENCE_ENTRY": "HVSISYDIPLT [GAB1_Y307_P311L]",
    "ASSIGNED_CLASS": "Satisfied"
  },
  {
    "SEQUENCE_ENTRY": "KPLMPCMRFSR [SMARCE1_Y73_Y73C_YF]",
    "ASSIGNED_CLASS": "Not satisfied"
  },
  {
    "SEQUENCE_ENTRY": "WFISFYPQVIM [CTNS_Y143_S139F]",
    "ASSIGNED_CLASS": "Satisfied"
  },
  {
    "SEQUENCE_ENTRY": "CEHRGYLYLAI [TEK_Y897]",
    "ASSIGNED_CLASS": "Satisfied"
  },
  {
    "SEQUENCE_ENTRY": "AIMSFYATLID [RYR1_Y2426_A2428T]",
    "ASSIGNED_CLASS": "Satisfied"
  },
  {
    "SEQUENCE_ENTRY": "GVRYIYTIDGS [DCX_Y105]",
    "ASSIGNED_CLASS": "Satisfied"
  },
  {
    "SEQUENCE_ENTRY": "PFTRNYFVRAV [CYBA_Y87_YF]",
    "ASSIGNED_CLASS": "Not satisfied"
  },
  {
    "SEQUENCE_ENTRY": "RHPLDYLRQFP [NARS2_Y138_E137D_YF]",
    "ASSIGNED_CLASS": "Not satisfied"
  },
  {
    "SEQUENCE_ENTRY": "VVTFSYKPAGN [RBL2_Y544_P547A]",
    "ASSIGNED_CLASS": "Not satisfied"
  },
  {
    "SEQUENCE_ENTRY": "YQLPYYNTVPS [BMPR1A_Y458_M460T]",
    "ASSIGNED_CLASS": "Not satisfied"
  },
  {
    "SEQUENCE_ENTRY": "FRAPGYREVVI [TNS2_Y673_YF]",
    "ASSIGNED_CLASS": "Not satisfied"
  },
  {
    "SEQUENCE_ENTRY": "IINENYDYLKV [NUP98_Y1664_G1669V]",
    "ASSIGNED_CLASS": "Satisfied"
  },
  {
    "SEQUENCE_ENTRY": "RYVSRYIYNRE [HLA-DQB1_Y62_T60S]",
    "ASSIGNED_CLASS": "Satisfied"
  },
  {
    "SEQUENCE_ENTRY": "EDKFMYFEFPQ [PTEN_Y240]",
    "ASSIGNED_CLASS": "Satisfied"
  },
  {
    "SEQUENCE_ENTRY": "GCVSKYSGVFS [TUBGCP6_Y1624]",
    "ASSIGNED_CLASS": "Not satisfied"
  },
  {
    "SEQUENCE_ENTRY": "CGTPDYIDPEI [PRKCG_Y521_A523D]",
    "ASSIGNED_CLASS": "Satisfied"
  },
  {
    "SEQUENCE_ENTRY": "TLLSAYQIPRT [GAB2_Y324_P320L]",
    "ASSIGNED_CLASS": "Not satisfied"
  },
  {
    "SEQUENCE_ENTRY": "DKVFTYIFIME [SCN4A_Y1074]",
    "ASSIGNED_CLASS": "Satisfied"
  },
  {
    "SEQUENCE_ENTRY": "DEFLEHRRIVG [FAM221A_Y20_Y20H_YF]",
    "ASSIGNED_CLASS": "Not satisfied"
  },
  {
    "SEQUENCE_ENTRY": "AFSTVYKGLWI [EGFR_Y727_G724S]",
    "ASSIGNED_CLASS": "Satisfied"
  },
  {
    "SEQUENCE_ENTRY": "AALRLYHVSDS [VIL1_Y256_K254R]",
    "ASSIGNED_CLASS": "Not satisfied"
  },
  {
    "SEQUENCE_ENTRY": "MNLLGYRQVRS [CHST4_Y359_H361Q]",
    "ASSIGNED_CLASS": "Not satisfied"
  },
  {
    "SEQUENCE_ENTRY": "FARNSYVAGQF [G6PD_Y107_YF]",
    "ASSIGNED_CLASS": "Not satisfied"
  },
  {
    "SEQUENCE_ENTRY": "ISMAGYSIPEL [EDAR_Y406_T403M]",
    "ASSIGNED_CLASS": "Not satisfied"
  },
  {
    "SEQUENCE_ENTRY": "EGLKVYINGTL [ADGRD1_Y183_V184I]",
    "ASSIGNED_CLASS": "Satisfied"
  },
  {
    "SEQUENCE_ENTRY": "RLLRGYNQSAF [HLA-C_Y137_D138N_YF]",
    "ASSIGNED_CLASS": "Not satisfied"
  },
  {
    "SEQUENCE_ENTRY": "QGCSIYKDYYR [PLA2G2D_Y82]",
    "ASSIGNED_CLASS": "Satisfied"
  },
  {
    "SEQUENCE_ENTRY": "VYAANYYKLLG [ROR2_Y645_D644N]",
    "ASSIGNED_CLASS": "Satisfied"
  },
  {
    "SEQUENCE_ENTRY": "NIEPIYLNMLL [ATR_Y317_V316I]",
    "ASSIGNED_CLASS": "Satisfied"
  },
  {
    "SEQUENCE_ENTRY": "FGVTLYPNSRE [MEP1A_Y472]",
    "ASSIGNED_CLASS": "Satisfied"
  },
  {
    "SEQUENCE_ENTRY": "YIRRDYEACKA [BBS4_Y48_K46R]",
    "ASSIGNED_CLASS": "Not satisfied"
  },
  {
    "SEQUENCE_ENTRY": "ALWFIYSHTRS [ENG_Y614_YF]",
    "ASSIGNED_CLASS": "Satisfied"
  },
  {
    "SEQUENCE_ENTRY": "KKRRSYGNSSD [SELENOK_Y52]",
    "ASSIGNED_CLASS": "Not satisfied"
  },
  {
    "SEQUENCE_ENTRY": "RHFTTYDTNGR [CLCA1_Y665_Y661H]",
    "ASSIGNED_CLASS": "Not satisfied"
  },
  {
    "SEQUENCE_ENTRY": "IGHGSYAKVLL [PRKCZ_Y263_R260H]",
    "ASSIGNED_CLASS": "Not satisfied"
  },
  {
    "SEQUENCE_ENTRY": "SPPPAFTPMSG [ERBB4_Y1056_Y1056F]",
    "ASSIGNED_CLASS": "Not satisfied"
  }
]
